All values here come from paper PMC12203613.

- Target System: AtHPPD (4-hydroxyphenylpyruvate dioxygenase) (Arabidopsis thaliana, UniProt P93836)
- Sequence (P93836 1-445): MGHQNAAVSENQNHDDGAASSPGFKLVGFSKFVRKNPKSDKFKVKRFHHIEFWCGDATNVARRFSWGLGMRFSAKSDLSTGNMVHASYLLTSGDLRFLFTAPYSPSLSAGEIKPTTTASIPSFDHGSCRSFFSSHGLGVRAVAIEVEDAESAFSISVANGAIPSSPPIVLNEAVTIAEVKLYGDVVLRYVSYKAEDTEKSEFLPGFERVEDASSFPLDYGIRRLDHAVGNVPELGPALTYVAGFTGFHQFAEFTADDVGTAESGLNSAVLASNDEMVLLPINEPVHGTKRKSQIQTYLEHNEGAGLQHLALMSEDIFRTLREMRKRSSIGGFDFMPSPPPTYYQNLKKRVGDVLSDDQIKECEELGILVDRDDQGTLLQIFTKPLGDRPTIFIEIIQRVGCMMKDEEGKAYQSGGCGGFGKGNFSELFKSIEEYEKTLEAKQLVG
- Measurement Protocol: X-ray co-crystal structure at […] Å
- Format: biochemical
Property: Ki (nM)
Provide the reading as a plain figure in nM.

Output measured Ki for this item: Cc1nnc(NC(=O)c2ccc(C(F)(F)F)n3c(CS(=O)(=O)C(C)C)nnc23)o1 [iptriazopyrid]
24.3

* * *

- Target System: OsHPPD (4-hydroxyphenylpyruvate dioxygenase) (Oryza sativa, UniProt Q6H4V1)
- Sequence (Q6H4V1 2-446): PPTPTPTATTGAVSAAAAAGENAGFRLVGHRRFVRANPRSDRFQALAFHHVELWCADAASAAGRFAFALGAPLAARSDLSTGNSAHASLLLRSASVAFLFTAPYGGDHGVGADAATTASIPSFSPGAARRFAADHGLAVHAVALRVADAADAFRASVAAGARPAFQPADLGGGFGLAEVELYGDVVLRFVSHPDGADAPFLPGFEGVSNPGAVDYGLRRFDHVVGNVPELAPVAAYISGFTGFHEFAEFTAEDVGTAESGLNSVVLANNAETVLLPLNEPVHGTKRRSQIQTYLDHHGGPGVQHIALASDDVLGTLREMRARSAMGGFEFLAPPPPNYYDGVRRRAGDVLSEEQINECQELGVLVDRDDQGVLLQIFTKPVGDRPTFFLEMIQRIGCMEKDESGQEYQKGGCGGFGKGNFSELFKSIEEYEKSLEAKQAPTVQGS
- Measurement Protocol: coupled enzyme assay
- Assay type: biochemical
Property: Ki (nM)
Form entry: value (nM) — number only.

Look up and report measured Ki for this entry: CS(=O)(=O)c1ccc(C(=O)C2C(=O)CCCC2=O)c([N+](=O)[O-])c1 [mesotrione]
26.5
